- System: IGROV1 ovarian
- protocol summary: NCI-60 one-dose screen, 48 h
- conditions: 10 µM unless noted
- Procedure: Growth inhibition of the IGROV1 human tumor cell line is measured as a screen for anti-cancer activity. Cells are grown in 96 well plates and exposed to the test compound for 48 hours. Compounds are tested at a single concentration, which is 10^-5 M for most compounds. The reported endpoint is percent growth (GI% or GIPRCNT), where numbers from 0 - 100% represent growth inhibition, and numbers from -100% - 0 represent cell death. For example, a value of 40 represents 60% growth inhibition. […]
Compounds without any hit were thinned out: in the full panel of roughly 83,000, 20% have a hit. Calls of active or inactive are those of the source. The calls were made as follows: active = growth percent below 10; inactive = the rest.
Valid outcomes are listed here; reply with one: Y (active), N (inactive)

1) COc1ccc(-c2cc(-c3ccccc3)nc(SCCCC(=O)NO)n2)cc1OC :: N
2) COc1ccccc1CNCCCN1C(=O)c2ccc3c4c(ccc(c24)C1=O)C(=O)N(CCCNCCCCNCCCN)C3=O :: Y
3) COc1ccc(-n2c(=S)sc3c(Cl)nc(C)nc32)c(OC)c1 :: Y
4) CC(NNC(C)c1ccccc1)c1ccccc1 (configuration not stated) :: N
5) CC(C)(C)Nc1c(-c2cccs2)nc2ncccn12 :: N

Query: // outcome(item) with item = COc1cccc(CC(C)=C(c2ccc(OCCN(C)C)cc2)c2ccc(OCCN(C)C)cc2)c1
Response: Y

Query: // outcome(item) with item = CCOC(=O)C1C(=O)C=C(c2ccc(OC)cc2)CC1c1sc(N(C)Cc2ccccc2)nc1Cl (configuration not stated)
Response: N
